Where do the numbers come from? From ChEMBL document CHEMBL2406955.

system: SMMC-7721; test: Cytotoxicity against human SMMC7721 cells after 48 hrs by MTT assay; assay type: functional, cell-based; settings: SMMC-7721, 48 h
pIC50: −log10 of the molar value.

- input.smiles: "c1ccc(-c2oc3ccccc3c2Cn2ccnc2)cc1"
  tgt: "SMMC-7721"
  prefix.operator: "<"
  pIC50: 4.40
- input.smiles: "O=C(C[n+]1ccn(Cc2c(-c3ccccc3)oc3ccccc23)c1)c1ccc2ccccc2c1"
  tgt: "SMMC-7721"
  prefix.operator: "="
  pIC50: 5.03
- input.smiles: "CCc1n(Cc2c(-c3ccccc3)oc3ccccc23)cc[n+]1Cc1ccccc1Br.[Br-]"
  tgt: "SMMC-7721"
  prefix.operator: "="
  pIC50: 6.28
- input.smiles: "O=C(C[n+]1cnn(Cc2c(-c3ccccc3)oc3ccccc23)c1)c1ccc(Br)cc1"
  tgt: "SMMC-7721"
  prefix.operator: "="
  pIC50: 4.97
- input.smiles: "O=C(C[n+]1cn(Cc2c(-c3ccccc3)oc3ccccc23)c2ccccc21)c1ccc(O)cc1"
  tgt: "SMMC-7721"
  prefix.operator: "="
  pIC50: 4.68
- input.smiles: "O=C(C[n+]1ccn(Cc2c(-c3ccccc3)oc3ccccc23)c1)c1ccc(F)cc1"
  tgt: "SMMC-7721"
  prefix.operator: "="
  pIC50: 4.87
- input.smiles: "CCc1n(Cc2c(-c3ccccc3)oc3ccccc23)cc[n+]1CC(=O)c1ccccc1"
  tgt: "SMMC-7721"
  prefix.operator: "="
  pIC50: 5.30
- input.smiles: "Brc1ccccc1C[n+]1cn(Cc2c(-c3ccccc3)oc3ccccc23)c2ccccc21"
  tgt: "SMMC-7721"
  prefix.operator: "="
  pIC50: 5.68
- input.smiles: "c1ccc(C[n+]2cn(Cc3c(-c4ccccc4)oc4ccccc34)c3ccccc32)cc1"
  tgt: "SMMC-7721"
  prefix.operator: "="
  pIC50: 5.32
- input.smiles: "O=C(C[n+]1cnn(Cc2c(-c3ccccc3)oc3ccccc23)c1)c1ccc2ccccc2c1"
  tgt: "SMMC-7721"
  prefix.operator: "="
  pIC50: 5.73
- input.smiles: "O=C(C[n+]1cnn(Cc2c(-c3ccccc3)oc3ccccc23)c1)c1ccc(F)cc1"
  tgt: "SMMC-7721"
  prefix.operator: "="
  pIC50: 5.04
- input.smiles: "COc1ccc(C(=O)C[n+]2ccn(Cc3c(-c4ccccc4)oc4ccccc34)c2)cc1"
  tgt: "SMMC-7721"
  prefix.operator: "="
  pIC50: 4.78
